tested on: Human plasma; experiment: in vitro; settings: 15 min, 100 ng/mL
Outcome Measure: Ave. Buffer Extracted (ng/mL)
Write it as a number; the unit ng/mL goes unstated.

Fetch value of Ave. Buffer Extracted on Human plasma for CC[C@H]1OC(=O)[C@H](C)[C@@H](O[C@H]2C[C@@](C)(OC)[C@@H](O)[C@H](C)O2)[C@H](C)[C@@H](O[C@@H]2O[C@H](C)C[C@H](N(C)C)[C@H]2O)[C@](C)(O)C[C@@H](C)C(=O)[C@H](C)[C@@H](O)[C@]1(C)O .
35.0

Fetch value of Ave. Buffer Extracted on Human plasma for C[C@]12C=CC(=O)C=C1CC[C@@H]1[C@@H]2[C@@H](O)C[C@@]2(C)[C@H]1CC[C@]2(O)C(=O)CO .
62.1

Fetch value of Ave. Buffer Extracted on Human plasma for CN(C)CCCN1c2ccccc2CCc2ccccc21 .
65.4

Fetch value of Ave. Buffer Extracted on Human plasma for CC(C)NCC(O)COc1cccc2ccccc12 (centres unmarked) .
18.3

Fetch value of Ave. Buffer Extracted on Human plasma for NC(=O)N1c2ccccc2C=Cc2ccccc21 [Carbamazepine] .
34.7

----------
For each of the compounds below, state its fraction unbound at 1 h, 100 ng/mL.
assay: in vitro; settings: human, plasma
// return just the number, without any unit appended

Return fraction unbound at 1 h, 100 ng/mL for the following compound: C[C@]12C=CC(=O)C=C1CC[C@@H]1[C@@H]2[C@@H](O)C[C@@]2(C)[C@H]1CC[C@]2(O)C(=O)CO
0.218

Return fraction unbound at 1 h, 100 ng/mL for the following compound: CC[C@H]1OC(=O)[C@H](C)[C@@H](O[C@H]2C[C@@](C)(OC)[C@@H](O)[C@H](C)O2)[C@H](C)[C@@H](O[C@@H]2O[C@H](C)C[C@H](N(C)C)[C@H]2O)[C@](C)(O)C[C@@H](C)C(=O)[C@H](C)[C@@H](O)[C@]1(C)O
0.182

Return fraction unbound at 1 h, 100 ng/mL for the following compound: NC(=O)N1c2ccccc2C=Cc2ccccc21 [Carbamazepine]
0.236

Return fraction unbound at 1 h, 100 ng/mL for the following compound: Cc1ccc(-c2nc3ccc(C)cn3c2CC(=O)N(C)C)cc1
0.031

Return fraction unbound at 1 h, 100 ng/mL for the following compound: CC(C)NCC(O)COc1cccc2ccccc12 (centres unmarked)
0.095

----------
test: Protein binding by BioSPME (C18 96-pin tool, extraction from spiked plasma and buffer); conditions: human, human plasma
Outcome Measure: fraction unbound at 1 h, 500 ng/mL
// return just the number, without any unit appended

Return fraction unbound at 1 h, 500 ng/mL for the following compound: CC(=O)N1CCN(c2ccc(OCC3COC(Cn4ccnc4)(c4ccc(Cl)cc4Cl)O3)cc2)CC1 (stereo not shown)
0.032

----------
system: Human plasma; test: in vitro; conditions: human, 15 min, 100 ng/mL
Respond with Met for Ave. Plasma Extracted values of 8 ng/mL and above, Not met for values below.

Is the recorded value of Ave. Plasma Extracted equal to or greater than 8 ng/mL for this molecule? CC[C@H]1OC(=O)[C@H](C)[C@@H](O[C@H]2C[C@@](C)(OC)[C@@H](O)[C@H](C)O2)[C@H](C)[C@@H](O[C@@H]2O[C@H](C)C[C@H](N(C)C)[C@H]2O)[C@](C)(O)C[C@@H](C)C(=O)[C@H](C)[C@@H](O)[C@]1(C)O
Not met

Is the recorded value of Ave. Plasma Extracted equal to or greater than 8 ng/mL for this molecule? CC(C)NCC(O)COc1cccc2ccccc12 (centres unmarked)
Not met

Is the recorded value of Ave. Plasma Extracted equal to or greater than 8 ng/mL for this molecule? CN(C)CCCN1c2ccccc2CCc2ccccc21
Met

Is the recorded value of Ave. Plasma Extracted equal to or greater than 8 ng/mL for this molecule? C[C@]12C=CC(=O)C=C1CC[C@@H]1[C@@H]2[C@@H](O)C[C@@]2(C)[C@H]1CC[C@]2(O)C(=O)CO
Met

----------
assay: Protein binding by BioSPME (C18 96-pin tool, extraction from spiked plasma and buffer); conditions: human, human plasma
Outcome Measure: fraction unbound at 1 h, 100 ng/mL
// return just the number, without any unit appended

Return fraction unbound at 1 h, 100 ng/mL for the following molecule: CN(C)CCCN1c2ccccc2CCc2ccccc21
0.074

----------
Test: in vitro
Conditions: human, plasma
Experimental: Protein Binding by BioSPME was studied. A 96-pin device was prepared with an […] pre-coating and PAN/C18 BioSPME coating. […] The determination of the protein binding was determined by automated robotic method using the BioSPME C18 96-pin tool. […] Samples were analyzed using methods described in Tables 5 and 6. […] The percent free or percent unbound is determined in Eq. 1: […] The bound fraction, FB, can be determined from the extracted concentrations as shown in Eq 6. […]
Outcome Measure: fraction unbound at 1 h, 2500 ng/mL
// return just the number, without any unit appended

Return fraction unbound at 1 h, 2500 ng/mL for the following compound: CC(=O)CC(c1ccccc1)c1c(O)c2ccccc2oc1=O (stereo not shown)
0.002
